- assay-protocol: 14C assay: 14CO2 capture from [14C]-carboxyl-labeled dicamba with IPTG-induced recombinant E. coli cells
- test-parameters: IPTG-induced recombinant E. coli cells; 14CO2 from [14C]-carboxyl-labeled dicamba

molecule	Dicamba Decarboxylase Activity
50 (protein, listed as Streptomyces sp.) MARIVTLEEHWTDPAVTAAGMPNLLDHVPGYAAAFDPDTGMPYPRHPELLEDLGAARIADMDRHGITTQVLSLVNTFLPADVAPRLTAAANDAMAAAVEAFPGRFAAFATLPTAVPGAAADELRRCVGELGFVGTMIMGRTDGEFLDQPRFDPILRAASDLSVPVYLHPAPPPVAVSEASYAGGLSPAVSAAFRLAAWGWHQETAVHLLHLVLAGVLDRYPGLQFVLGHWGEFIPFYLDRLDESMPRRMTGLDRTFREYFRDNVFITPSGMFSQAQLRYCADTVGTDRIIHSVDFPMLGNEGAVSFLTDSHLSREDQEKIAHGNADALLGLG	High
60 (protein, listed as Catenulispora acidiphila) MARGFVRTAVVPGFWDAGWRGAGQPGGMRVDVHAHLFPAAYLDLLDDFRQDGGVGTREVRALGGGDGERELRLRLAAMDAVGVDVQLLSTCPQGPYTGDPTAAVEAARCANVALAQTVAQYPERLRALAALPLPHILASVDELNRAMEQDGMLGAAVGTSILGRPLSHPDFEPLFAALNRRKGVLFVHPIGESAGSPLMQASKLDRVIGYAAEVSTAILQLFQAGLTVKYPDIRIIAPHMGGYLPFLIQRLDRHRDWYLPKDAPSAGQLMRGIAYDTANPLPAALRLTAEVVGPERLLLGTDYPFEQGPSLRDHIEYILAAGLPEAQAKMIVDVNAADFLDMRSGAEQPPV	No
52 (protein, listed as Streptomyces sp.) MAKIIALEEHFSDPAVAKAGAARAQALSPGFAASYSPASGLPYSPSPEVLENLAEKRLADMDAGGITMQVLSGLSAQTVPADVAPALVAGSNDKAAAAVRAHPDRFAAFAALPTAAPEAAVAELDRSVNELGFVGTLIMGRTEGEFLDAPRFEPILARAAALKVPVFLHPGVPPREITDSNYAAGLPTGIGTRLQTAAWGWHQETAVHFLHLVHSGVLDRYPDLQFILGHWGETIPFYLDRVDEALPQRATGLDRSFHEYFRENVYLAPSGMWSQAQLRFCLETFPLERIVFAVDYPFIGNEGAVPFLEKAELPEADKRKIAHENAERLLGL	High
93 (protein, listed as Mucilaginibacter paludis) MAKYGKHITINKNMRIVTLEEHISFPEMADQIPKAALGSFGRSEAMQRIAPKLADITGERLKSMDANGISMQVLSVDSSGVNLLSPQQGPAFATQYNDLIANRIAGFEKRFTAFAHLPMTAPFAAADELERAVKEHHFCGAMIRGLTGDQFLDHPQFAPIFERAQKLDVPIYLHPGLPPKGVADIYYSGLPNYSGMAEALACYGWGWHSETALHVLRLLFSGIFDQYPKLKLVIGHMGEMLPMMMARSEKAFKPGNGGANVRTLTDTFRSQVYLTTSGFFTQPPLKIALDTFGIDHVMFSVDYPFSTNEMGIEFLNEIDLPDEEVARIAHGNADKLLNLKA	Low
